- Test system: CAKI-1 renal
- protocol-text: NCI tumour cell line growth inhibition, 48 h
quantity-measured: TGI (µM)
Answers are plain numbers, in µM.

[[record]]
molecule = "CC(C)(C)c1cc(C(P(=O)(c2ccccc2)c2ccccc2)P(=O)(c2ccccc2)c2ccccc2)cc(C(C)(C)C)c1O"
target_entity = "CAKI-1 renal"
reported_result = 9.9

[[record]]
molecule = "C=CC1CC12C(=O)C1OC2(C)C2C(=O)c3cc4ccccc4cc3C(=O)C12 (centres undefined)"
target_entity = "CAKI-1 renal"
reported_result = 35.7

[[record]]
molecule = "CC(C)c1ccc(Nc2ccc3c(OCCCN4CCN(C)CC4)cccc3n2)cc1"
target_entity = "CAKI-1 renal"
reported_result = 28.8

[[record]]
molecule = "CC1OC2CC(=O)OC2C2=C1C(=O)c1c(O)cccc1C2=O (centres undefined)"
target_entity = "CAKI-1 renal"
reported_result = 0.148

[[record]]
molecule = "c1ccc2sc(C3(N4CCCC4)CCCCCC3)cc2c1"
target_entity = "CAKI-1 renal"
reported_result = 61.2


Give TGI for all molecules that follow.
1. Cc1ccc(Cl)cc1Nc1nc(C(F)(F)F)ccc1C(=O)N1CCN(c2ccc(F)cc2)CC1
2. C=C(C=O)[C@@H]1C2OC(=O)C(=C)[C@@H]2CC(O)[C@@]1(C)CC (some centres undefined)
3. O=C(c1ccccc1)c1cc(Cl)ccc1OCCCCN1CCN(CCCCOc2ccc(Cl)cc2C(=O)c2ccccc2)CC1
4. CC1=C(C#N)C(C#N)(C#N)C(NN(C)C)C1 (centres undefined)
5. COC(=O)C1=C(c2ccc3c(c2)OCO3)O[C@H](c2cc(OC)c(OC)c(OC)c2)[C@H]1COC(C)=O

(A)
[14.2, 24, 15.1, 7, 66.8]

---

- System: PC-3 prostate
- protocol-text: NCI tumour cell line growth inhibition, 48 h
Task for the reader: assign each of the following molecules its reported TGI.

[[record]]
smiles_data = "CC(C)(C)OC(=O)NCC(O)CNC(=O)OC(C)(C)C"
target_entity = "PC-3 prostate"
reported_result = "> 100 µM"


Give TGI for all molecules that follow.
1. Cc1nnc(S(=O)(=O)c2ccc(N=Nc3c(N)nc(N)nc3N)cc2)s1
2. O=C1NC(=Nc2ccccc2)S/C1=C\c1ccc2ncccc2c1
3. COc1ccc(N=C2SC(=N/N=c3\sc4ccccc4n3C)SC2=Nc2ccc(OC)cc2)cc1

(A)
> 100 µM
> 25 µM
> 100 µM

Give TGI for all molecules that follow.
1. CCC(=O)NC(Nc1cccc(F)c1C)(C(F)(F)F)C(F)(F)F
2. CC(=O)Oc1cccc2c(/C=N/NC(N)=S)ncc(C)c12

(A)
1. > 100 µM
2. 33.6 µM

---

- System: M14 melanoma
- protocol-text: NCI tumour cell line growth inhibition, 48 h; in the data active = GI50 below about 0.43 µM; inactive = the rest
The reply should name one outcome from y = active, n = inactive

(Q) Hello, I am checking results. What call was entered for Oc1ccc(Cl)cc1Cc1cc(Cl)cc(Cl)c1O ?
(A) n

(Q) Hello, I am checking results. What call was entered for COC(=O)c1cc2c(cc1O)[C@@H](NC(C)=O)CCc1cc(OC)c(OC)c(OC)c1-2 ?
(A) y

(Q) Hello, I am checking results. What call was entered for C=C(C)[C@@]12OC3(/C=C/C=C/CCCCC)O[C@@H]1[C@@H]1[C@@H]4O[C@]4(CO)[C@@H](O)[C@]4(O)C(=O)C(C)=C[C@H]4[C@@]1(O3)[C@H](C)[C@H]2OC(=O)c1ccccc1 ?
(A) n

(Q) Hello, I am checking results. What call was entered for Cn1cc(C2=C(c3ccc4ccccc4c3)C(=O)NC2=O)c2ccccc21 ?
(A) n

(Q) Hello, I am checking results. What call was entered for CCN1CCN(c2ccc(Nc3cc(N(C)C(=O)Nc4c(Cl)c(OC)cc(OC)c4Cl)ncn3)cc2)CC1 ?
(A) n
